Value source: PubChem BioAssay AID1259407

# Tested on: CCRIS mutagenicity, Ames/micronucleus/aberration tests
# ASSAY_SUMMARY: CCRIS mutagenicity studies
# MEASUREMENT_SETUP: Test System: AMES SALMONELLA TYPHIMURIUM; Strain/Indicator: TA98; Metabolic Activation: RAT, LIVER, S-9, PCB; Method: PREINCUBATION
Active and inactive are the calls of the source. No rule for the calls is given here.
Classes used: active, inactive

COc1nncc2ccncc12    inactive
O=[N+]([O-])c1ccc(Nc2ncnc3c2ncn3-c2ccc([N+](=O)[O-])cc2)cc1    inactive
COc1nncc2ccccc12    inactive
CCc1nc2ccc(NC)c(C)c2nc1CC    active
O=C1c2ccccc2C(=O)c2c(O)c(O)cc(O)c21    inactive
c1cc2cnncc2cn1    inactive
Cc1ccc(NN=NCc2ccc([N+](=O)[O-])cc2)cc1    active

----------
# System: CCRIS mutagenicity, Ames/micronucleus/aberration tests
# ASSAY_SUMMARY: CCRIS mutagenicity studies
# MEASUREMENT_SETUP: Test System: AMES SALMONELLA TYPHIMURIUM; Strain/Indicator: TA98; Metabolic Activation: HAMSTER, LIVER, S-9, AROCLOR 1254; Method: STANDARD PLATE
Calls of active or inactive are those of the source. The rule behind the calls is not given here.
Classes used: active, inactive

O=NN1CCC[C@H]1c1cccnc1    inactive
Cc1cc(C)c(S(=O)(=O)O)cc1N=Nc1cc(S(=O)(=O)O)c2ccccc2c1O    inactive
C=C(C)C(=O)OCCOC(=O)C(=C)C    inactive
O=C(Cl)c1ccc([N+](=O)[O-])cc1    inactive
CN(C)C(=O)Oc1ccc[n+](C)c1    inactive
CC(C)C1=CC2=CC[C@@H]3[C@](C)(CCC[C@@]3(C)C(=O)O)[C@H]2CC1    inactive
CCCCC/C=C\C/C=C\CCCCCCCC(=O)O    inactive
CC(C)CCON=O    inactive
CN(C)c1ccc(/C=C/c2ccccc2)cc1    active
O=C1c2ccccc2CCc2ccccc21    inactive
COc1cc([N+](=O)[O-])ccc1N=NC(C(C)=O)C(=O)Nc1ccccc1OC (stereo not drawn)    inactive
CN(C)CCCCl    inactive
CNC(=O)Oc1ccccc1OC(C)C    inactive
Cc1cc(N(CCO)CCO)ccc1N=Nc1ccc(N)cc1    inactive
C[C@H]1CCCC(=O)CCC/C=C/c2cc(O)cc(O)c2C(=O)O1    inactive
CCCCC=O    inactive
Nc1ccc(N=Nc2ccc3c(c2)C(=O)/C(=N/Nc2ccc(Nc4ccc(N/N=C5/C(=O)c6cc(N=Nc7ccc(N)cc7N)ccc6C=C5S(=O)(=O)O)cc4S(=O)(=O)O)cc2)C(S(=O)(=O)O)=C3)c(N)c1    active
CCN(N=O)c1ccccc1    inactive
Clc1cc(Cl)c(Cl)cc1Cl    inactive
O=C(CCc1ccc(O)cc1)c1c(O)cc(O)cc1O    inactive
N#Cc1ccccc1    inactive
CC(=O)Nc1ccc(C(=O)CCl)cc1    active
C=CCc1ccc(O)cc1    inactive
O=C1c2ccccc2C(=O)c2ccccc21    inactive
O=C(/C=C/c1ccc([N+](=O)[O-])cc1)c1ccccc1    active
CCCCC(CC)COC(=O)c1ccc(N(C)C)c([N+](=O)[O-])c1 (stereo not drawn)    active
Nc1ncc([N+](=O)[O-])s1    inactive
NCc1cccc(CN)c1    inactive
